Recorded growth at 10 µM for the following compounds
- assay.notes: Cytotoxicity against human NCI-ADR-RES cells assessed as cell growth at 10 uM after 48 hrs by SRB assay
- Type: functional
- measurement.parameters: read-out: Activity

structure.as.smiles	growth at 10 µM (%)
CCSc1nc2ccc3c(c2[nH]1)C(=O)c1ccccc1C3=O	85.7
O=C1c2ccccc2C(=O)c2c1ccc1nc3n(c21)CCS3	84.1
CN(C)CCCSc1nc2ccc3c(c2[nH]1)C(=O)c1ccccc1C3=O	54.3
O=C1c2ccccc2C(=O)c2c1ccc1[nH]c(=S)[nH]c21	110
O=C1c2ccccc2C(=O)c2c1ccc1nc(SCCN3CCCC3)[nH]c21	53.7
CCCSc1nc2ccc3c(c2[nH]1)C(=O)c1ccccc1C3=O	50.2
